Consider the following compounds; for each one, report its log10 of concentration at 3 h.
- protocol notes: Tissue distribution in mice
- Format: in vivo
- test conditions: mouse, plasma, po 10 mg/kg, 3 h, read-out: Mean drug concentration, Plasma
// do not treat as linear: log10 of concentration at 3 h, unit ng/mL

## Task Name the reported log10 of concentration at 3 h value associated with the compound Nc1ccc(-c2nn(Cc3ccc(Cl)cc3)c(=O)c3ccccc23)c(F)n1
## Result 1.51

## Task Name the reported log10 of concentration at 3 h value associated with the compound Cc1ccc(-c2cc(C)c(=O)n(Cc3ccc(Cl)cc3)n2)c(F)n1 [I-88, reference compound]
## Result 2.26

## Task Name the reported log10 of concentration at 3 h value associated with the compound Cc1cc(-c2ccc(F)nc2F)nn(Cc2ccc(Cl)cc2)c1=O [I-70, reference compound]
## Result 1.86

## Task Name the reported log10 of concentration at 3 h value associated with the compound Cc1ccc(-c2nn(Cc3ccc(Cl)cc3)c(=O)c3ccccc23)c(F)n1
## Result 1.10

## Task Name the reported log10 of concentration at 3 h value associated with the compound N#Cc1ccc(Cn2nc(-c3ccc(F)nc3F)c3ccccc3c2=O)cc1
## Result 1.80

## Task Name the reported log10 of concentration at 3 h value associated with the compound N#Cc1ccc(Cn2nc(-c3ccc(C(F)(F)F)nc3F)c3ccccc3c2=O)cc1
## Result 2.64

----------
- protocol notes: Tissue distribution in mice
- Format: in vivo
- test conditions: mouse, plasma, po 10 mg/kg, 8 h, read-out: Mean drug concentration, Plasma
Consider the following compounds; for each one, report its concentration at 8 h.
Numbers only here, please. The scale is ng/mL.

## Task Name the reported concentration at 8 h value associated with the compound N#Cc1ccc(Cn2nc(-c3ccc(C(F)(F)F)nc3F)c3ccccc3c2=O)cc1
## Result 257

## Task Name the reported concentration at 8 h value associated with the compound N#Cc1ccc(Cn2nc(-c3ccc(F)nc3F)c3ccccc3c2=O)cc1
## Result 80.1

## Task Name the reported concentration at 8 h value associated with the compound Cc1ccc(-c2cc(C)c(=O)n(Cc3ccc(Cl)cc3)n2)c(F)n1 [I-88, reference compound]
## Result 0.993

## Task Name the reported concentration at 8 h value associated with the compound Nc1ccc(-c2nn(Cc3ccc(Cl)cc3)c(=O)c3ccccc23)c(F)n1
## Result 23

## Task Name the reported concentration at 8 h value associated with the compound Cc1cc(-c2ccc(F)nc2F)nn(Cc2ccc(Cl)cc2)c1=O [I-70, reference compound]
## Result 17.3

----------
Consider the following molecules; for each one, report its CC50 at 8 days.
- protocol notes: MTT assay for cytotoxicity
- Format: cell-based, Human
- test conditions: human, HepG2.2.15 cells, half (50%) lethal concentration

## Task Name the reported CC50 at 8 days value associated with the molecule N#Cc1ccc(Cn2nc(-c3ccc(N)nc3C#N)c3ccccc3c2=O)cc1
## Result > 100 µM

## Task Name the reported CC50 at 8 days value associated with the molecule COC(=O)CCNc1ccc(-c2nn(Cc3ccc(C#N)cc3)c(=O)c3ccccc23)c(F)n1
## Result > 100 µM

## Task Name the reported CC50 at 8 days value associated with the molecule N#Cc1ccc(Cn2nc(-c3ccc(NCCC(F)(F)F)nc3F)c3ccccc3c2=O)cc1
## Result > 100 µM

## Task Name the reported CC50 at 8 days value associated with the molecule N#Cc1ccc(Cn2nc(-c3cc(Cl)c(NCCC(F)(F)F)nc3F)c3ccccc3c2=O)cc1
## Result 63.5 µM

----------
- protocol notes: MTT assay for cytotoxicity
- Format: cell-based, Human
- test conditions: human, HepG2.2.15 cells, half (50%) lethal concentration
property: log10 CC50 at 8 days (log10 of the value in µM)
// do not treat as linear: log10 of CC50 at 8 days, unit µM

## Task Name the reported log10 CC50 at 8 days value associated with the compound [2H]C([2H])([2H])OC([2H])([2H])c1ccc(-c2nn(Cc3ccc(Cl)cc3)c(=O)c3ccccc23)c(F)n1
## Result 1.95

## Task Name the reported log10 CC50 at 8 days value associated with the compound N#Cc1ccc(Cn2nc(-c3cc(Cl)cnc3F)c3ccccc3c2=O)c(Cl)c1
## Result 1.67

## Task Name the reported log10 CC50 at 8 days value associated with the compound CCNCCCCNc1nc(F)c(-c2nn(Cc3ccc(C#N)cc3)c(=O)c3ccccc23)cc1Cl
## Result 0.41

## Task Name the reported log10 CC50 at 8 days value associated with the compound CCOCCNc1nc(F)c(-c2nn(Cc3ccc(C#N)cc3)c(=O)c3ccccc23)cc1Cl
## Result 1.47

## Task Name the reported log10 CC50 at 8 days value associated with the compound CC(O)CNc1ccc(-c2nn(Cc3ccc(C#N)cc3)c(=O)c3ccccc23)c(F)n1 (centres unmarked)
## Result 1.81

## Task Name the reported log10 CC50 at 8 days value associated with the compound N#Cc1ccc(Cn2nc(-c3ccc(NCCCO)nc3F)c3ccccc3c2=O)cc1
## Result 1.97

## Task Name the reported log10 CC50 at 8 days value associated with the compound Cc1ccc(-c2nn(Cc3ccc(C#N)cc3)c(=O)c3cc(F)c(F)cc23)c(F)n1
## Result 1.68

## Task Name the reported log10 CC50 at 8 days value associated with the compound CC(C)(C)OC(=O)CCNc1ccc(-c2nn(Cc3ccc(C#N)cc3)c(=O)c3ccccc23)c(F)n1
## Result 2.29

## Task Name the reported log10 CC50 at 8 days value associated with the compound CN(C)CCCCNc1ccc(-c2nn(Cc3ccc(C#N)cc3)c(=O)c3ccccc23)c(F)n1
## Result 1.27

## Task Name the reported log10 CC50 at 8 days value associated with the compound COCCNc1ccc(-c2nn(Cc3ccc(Cl)cc3)c(=O)c3ccccc23)c(F)n1
## Result 1.33

----------
Consider the following compounds; for each one, report its CC50 at 8 days.
- protocol notes: MTT assay for cytotoxicity
- Assay type: cell-based, Human
- test conditions: human, HepG2.2.15 cells, half (50%) lethal concentration

## Task Name the reported CC50 at 8 days value associated with the compound O=c1c2ccccc2c(-c2cc(Cl)cnc2F)nn1Cc1ccc(Cl)cc1
## Result > 25 µM

## Task Name the reported CC50 at 8 days value associated with the compound N#Cc1ccc(Cn2nc(-c3cccnc3C#N)c3ccccc3c2=O)cc1
## Result > 100 µM

## Task Name the reported CC50 at 8 days value associated with the compound CN(C)Cc1ccc(-c2nn(Cc3ccc(C#N)cc3)c(=O)c3ccccc23)c(F)n1
## Result > 100 µM

## Task Name the reported CC50 at 8 days value associated with the compound N#Cc1ccc(Cn2nc(-c3cccnc3)c3ccccc3c2=O)cc1
## Result > 100 µM

## Task Name the reported CC50 at 8 days value associated with the compound CC(=O)OCc1ccc(-c2nn(Cc3ccc(Cl)cc3)c(=O)c3ccccc23)c(F)n1
## Result 73.1 µM

## Task Name the reported CC50 at 8 days value associated with the compound O=c1c2ccccc2c(-c2ccncc2)nn1Cc1ccc(Cl)cc1
## Result > 100 µM

## Task Name the reported CC50 at 8 days value associated with the compound CCOCCOCCNc1ccc(-c2nn(Cc3ccc(C#N)cc3)c(=O)c3ccccc23)c(F)n1
## Result > 100 µM

## Task Name the reported CC50 at 8 days value associated with the compound O=c1c2ccccc2c(-c2ccc(CO)nc2F)nn1Cc1ccc(Cl)cc1
## Result > 100 µM

## Task Name the reported CC50 at 8 days value associated with the compound N#Cc1ccc(Cn2nc(-c3cc(Cl)cnc3F)c3ccccc3c2=O)c(F)c1
## Result 33.5 µM

----------
- System: HepG2.2.15 cells
- protocol notes: MTT assay for cytotoxicity
- Type: cell-based, Human
- test conditions: 8 days, half (50%) lethal concentration
property: CC50 (µM)
Numbers only here, please. The scale is µM.

## Task Name the reported CC50 value associated with the compound CN(C)CCNc1ccc(-c2nn(Cc3ccc(C#N)cc3)c(=O)c3ccccc23)c(F)n1
## Result 86.5

## Task Name the reported CC50 value associated with the compound COc1ccc(-c2nn(Cc3ccc(Cl)cc3)c(=O)c3ccccc23)c(F)n1 [Compound I-20]
## Result 33.3

----------
- protocol notes: MTT assay for cytotoxicity
- Format: cell-based, Human
- test conditions: human, HepG2.2.15 cells, half (50%) lethal concentration
Consider the following molecules; for each one, report its CC50 at 8 days.
Numbers only here, please. The scale is µM.

## Task Name the reported CC50 at 8 days value associated with the molecule CCNCCCNc1nc(F)c(-c2nn(Cc3ccc(C#N)cc3)c(=O)c3ccccc23)cc1Cl [IV-54]
## Result 8.55

## Task Name the reported CC50 at 8 days value associated with the molecule Nc1ccc(-c2nn(Cc3ccc(Cl)cc3)c(=O)c3ccccc23)cn1 [Compound I-5]
## Result 51.8

## Task Name the reported CC50 at 8 days value associated with the molecule COCCOCCOCCNc1ccc(-c2nn(Cc3ccc(C#N)cc3)c(=O)c3ccccc23)c(F)n1 [IV-49]
## Result 93.6

## Task Name the reported CC50 at 8 days value associated with the molecule Cc1ncccc1-c1nn(Cc2ccc(Cl)cc2)c(=O)c2ccccc12 [Compound I-7]
## Result 48.9
